Origin of the recorded values: patent US4183935A

- Test name: toxic effect: dose at which first toxic symptoms such as cyanosis or changes in ECG occur
- Format: in vivo, rats (Sprague Dawley)
- Stated conditions: rat, in vivo, po; toxic dose / ED50%; read-out: Q (quotient of the toxic dose and the ED50%)
Measure: selectivity ratio

> print(dat)
                                   compound  observed.value
1  c1ccc(CN2CC3CC(C2)CN(C(c2ccccc2)c2ccccc2)C3)cc1 [C6 H5 H H 0]            22.8
2  Fc1ccc(CN2CC3CC(CN(Cc4ccccc4)C3)C2)cc1 [H H F 0]            10.6
3  Clc1ccc(CN2CC3CC(CN(Cc4ccccc4)C3)C2)cc1Cl [H Cl Cl 0]            29.7
4  c1ccc(CN2CC3CC(C2)CN(CC(c2ccccc2)c2ccccc2)C3)cc1 [C6 H5 H H 1]             7.7

Now for a further compound.
Suppose we examine the compound Clc1cccc(CN2CC3CC(CN(Cc4ccccc4)C3)C2)c1 [H Cl H 0] ; what selectivity ratio value has been reported?
6
